These measurements were taken from a protein production outcome set (Wang et al. 2014).

test: label from the status in PepcDB records
readout.kind: protein production

Solved cases below.
sequence_chain=MTMEALQFLLAAPPGAYDPVARTIEDEPRPSQPPTSALALDIRGLRKSFGDNDVLRGIDLHIPAGQFVTIVGRSGCGKSTLLRLIAGLETPTAGHIVFGEDKLPGDVRVMFQEPRLLPWARVLANVEVGLGTERNSPDARARADAALIEVGLDDKRGEWPAVLSGGQKQRVALARALVSRPRVLAFDEPLGALDALTRIAMQRLLEQVWQAQGFTAILVTHDVAEAVALADRVLVIEDGRIAKDLPIDLPRPRQRGSAELAALEGEILRDLLKGAEDTFEL readout_kind="protein production" measured_result=failed
sequence_chain=MSFVSALCRLAVALWVGGATLFTFVLTPTIFRSESRDAAGRIVGYLFPGYFRWGLACGAVALVALLVVRGKNWIPAAALMVVMLAVTAFQALHIEPKAAELKRQIPSFETTTKDHPLRREFSKLHGISAACNLSVIAGGVVLVILL readout_kind="protein production" measured_result=failed
sequence_chain=MLMTLAATTSVSFNSKLLLFRIRCSDSNPKRGFGSKKEEKDPALQQRKSSSKQSVSVPRKAPGLNTQFEGKSGRSFDIDFDERLENIRRSALEQKKTEVVKEFGPIDYDAPVKSDQKTIGLGTKVGVGIAVVVFGLVFALGDFLPTGSDSPTKNTTVVKNQISEEEKATLQQRLKEFETTLNGTPQDQAALEGAAVTLTELGDYSRAAAFLEKLAKERPTDPDVFRLLGEVNYELNNYEGSIAAYKISEKVSKGIDLEVTRGLMNAYLAAKKPDEAVKFLLDTRERLNTKKTSTTDSVTDETNLDPIQVELLLGKAYSDWGHISDAIAVYDQLISAHPEDFRGYLAKGIILRENGSRGDAERMFIQARFFAPNKAKALVDRYSKL readout_kind="protein production" measured_result=failed
sequence_chain=MLTDALLAFLHFTAIFVLVTLMAAEAVVLRPDMPPSAVRRLSQYDFFYFLSAMVVLATGLLRLFYGAKGVDFYLHNPWFHAKITVFVLIALATLPPTFAFARWRKQSLKLPEFVPTPAEIKKVRRWVMIEAHAFILLPLCAVMMARGIGIH readout_kind="protein production" measured_result=failed
sequence_chain=MKKKLVIILSIICIIAGGYFTMEYLKHKEKEEFFWKTQETRVEKYIHYNVKDVKSITFIEHKISPMGIPSIEGYINDDKDLWFDASISTTENFEDKFSRSGELGKLIKDPEKSVSEIEKEEKEKKKELEHHHHHH readout_kind="protein production" measured_result="not failed"

Next up:
// returns reported protein production for input MTRRRKILTGVLALVVLAAGGLAAARALGPGGTRVTAYFDRAIGVYAGSDLRILGVRVGEVESVDPEGTRVRVGLRLDDGIKVPEDARAVVVAPSVVADRYVQLTPAYRTGPALADGAVLPASRNHVPVEIDQIYDSITELGDALGPDGANADGALSELLRTGADNLDGNGEAIGDGVEQFGKAAKTLDGSSGDLFETLSSLQTFTTMLKNKDTDVRTAQERLDEVVSFFADNKDDLTGALEELGKALGQVKTFIEDNRGELKKNVDRLVPITRTLVEQRASLAEALDVAPLAADNVVNAYNPDTRTLDGRANLNEISSGGPLLPLPVAGTEKGEGRLEHHHHHH
not failed

###

assay: label from the status in PepcDB records
readout.kind: protein production

sequence_chain=TKDFTWQTDWTFSLNNEKIKELAGGATYDSTGPWMVGEPLNSFYDFQYDRIWQNTQEDNHLMDVYRSLGLTFLPGQYKIVDQ readout_kind="protein production" measured_result=failed
sequence_chain=MNGSEFVPLSLTPLLIGVLAAVACALPGNFLVLRRQALIGDAISHVVLPGIVVAFLLTGAIAAWPMMLGAAGAAVVAVVLIEAIRRLGRIEPGAAMGVVFTTMFAAGVLLLEQTDTSTVHLDVEHALYGNLESLIWLDATGWASLLDPVALAGLPVELSRILVTLVGVVGFIWLFWRPLKLSTFDEGFARTLGIRTNLLGLALVIVAAVAAVAAFDAVGSIIVIAMFICPPAAARMMTNTLEGQVGWSVVFAILSAVLGYVLAGYGPLWLGARDAVSAAGMIATMSGLILALTARFGPCRSRTGAPVQA readout_kind="protein production" measured_result=failed

###

assay: label from the status in PepcDB records
readout.kind: protein production

sequence_chain=MTSVMPFAHLLLALLVVFVWGINFIFVKLSLEEFSPLLLCAVRFLLASVPAVFFIKPPAVPFKIIASYGLIMFALQFALLFIGLRVGMTPGVASLLMQVQVFFSMFFAIIFLGEQPQVGQIIGALIAFIGIGVVALHFDHNVSLMGFLCILAAAASWGIGNLITKKIHSVNLIAVIVWSSFVACLPMFILSLVFEGPESFVTAYEHMTWKGILSVLYIVYISTWVGYGVWNWLISRYPVGMVVPFTLLVPVVGILSSVLILGEPFYLWKLVAGLLVISGLCINLLTTRLFVAKTQQPETA readout_kind="protein production" measured_result=failed
sequence_chain=ETQPESAAFTAPSTDNPIRINFNENPLGMSPKAQAAARDAVVKANRYAKNEILMLGNKLAAHHQVEAPSILLTAGSSEGIRAAIEAYASLEAQLVIPELTYGDGEHFAKIAGMKVTKVKMLDNWAFDIEGLKAAVAAYSGPSIVYLVNPNNPTGTITPADVIEPWIASKPANTMFIVDEAYAEFVNDPRFRSISPMITQGAENIILLKTFSKIHAMAGMRVGYAVAHPTVIALMGRYVAGEKINFSGVDAALASMNDSAFITYSKKSNDVSRQILLKALEDLKLPYLPSEGNFVFHQLVVPLKDYQTHMADAGVLIGRAFPPADNWCRISLGTPQEMQWVADTMREFRKKSWI readout_kind="protein production" measured_result="not failed"
sequence_chain=MATQYGALSYSSRTQSPARVMTRVMVEARRVLLGALATAAVVAFMSAVGWVALLALTVTIPFATIVVALAMAIRHFRQDRRALA readout_kind="protein production" measured_result=failed
sequence_chain=MDFHIRKATNSDAEAIQHVATTSWHHTYQDLIPSDVQDDFLKRFYNVETLHNRISATPFAVLEQADKVIGFANFIELEKGKSELAAFYLLPEVTQRGLGTELLEVGMTLFHVPLPMFVNVEKGNETAIHFYKAKGFVQVEEFTEDFYGYPLETIRFNLNHHAFEEE readout_kind="protein production" measured_result="not failed"
sequence_chain=MTEHRPAIELEEIPTLLERIEGYKGRSRLTQLAIKLNLLIFIRSSELRFARWSEIDFKSGLWVIPEQREAIKGIKHSDRGAKMRRKHYVPLCEQALVILGELKDLTYDVNGDDGFILTGCYDAMKPMSENTINKALRKMGYDTKTDLCGHGFRTLACSALIESGIWPEDVVELQMSHMEKNNVRAAYTHKAKHLEQRRLMLQWWADFLDANGSGMVRPFEFAQGATQYLEHHHHHH readout_kind="protein production" measured_result=failed

// returns reported protein production for input PLLIFPPWINKFYIMDLRPENSMIRWLTAQGFTVFVASWVNPDQTLAAKTFEDYMVEGIYDAAQQVMTQCGVDRVNTVGYCIGGTLLSVALAHMAARGDKRINSATFFAAQQDFAEAGDLLLFTNEEWLQSIEQQMDQAGGFLPSQSMADTFNALRGNDLIWSFFVSNYLMGKEPRPFDLLFWNADQTRMPKALHLFYLRNFYKDNALTTGKLSLGGERLDLSKVKIPIYVQSSKDDHIAPYRSVYRGARAFGGPVTFTMAGSGHI
failed

// returns reported protein production for input MLVQKNEAFLWLHFYLISNFIVVIMQMFILVMYYLIIVDHSFVELNEQVNPLFSFLLFVFHSDLSFFPVLVQLIF
failed

// returns reported protein production for input SKALLFVIIGSVLVMLLLVGVIIMLLMGNKEESKENASKNTQEVQANPMANKNQEAKEGSNIQQYLVLGPLYAIDAPFAVNLVSQNGRRYLKASISLELSNEKLLNEVKVKDTAIKDTIIEILSSKSVEEVVTNKGKNKLKDEIKSHLNSFLIDGFIKNVFFTDFIIQ
failed

###

assay: label from the status in PepcDB records
readout.kind: protein production

sequence_chain=MGEDRRSLRVDYDDNFLRNNICSLKVSFIKQQGGAEGVKRLYADLGLALVALIWGSTFPVVKIALDSMSPFAFNTVRFFIACLFFLPFLKGWDFKDGFKIGIASFLGYTFQTVGLDYTTATNAGFITSTYVVLAPIISWLVYKDVFDKRDVSGVLLAFVGFYFLSGYSGFNIGDILMLFCALFFGAEIAMISHYSRLSNPTMLAFWQSFAIFILSAPFAVFTTTKFEINTTVILCLLITAFFATFVAKMLQNWLQSYTKSSDAAVILSLEGVFAHLFSVAVLAEILTPVQYFGAFLILLAVIIVSLRV readout_kind="protein production" measured_result=failed
sequence_chain=MASRDAQEPSLHAADPSIVRPCEQHGGVLAGSVSSHPAAAECASHTPTLETGAPCAAGSAPSAPMTDQGARSPRAADSMPASSLERDERARRIACRLPSSAIRLPAFGEAVSRPNAGSSVDATATKASLPSAGDDGLGNSREEQGTTCSEPDLHGVPENDQVEVCVGGRGILRPRSYQRQAPQRCGLPGMAPETAARPDHTARNELEEALARQRARLAEPDASGDIHGRHAG readout_kind="protein production" measured_result=failed
